Target: binding partner of C5A (XPA23)
Test: Biacore, mutant vs original C5A (XPA23)
readout.name: fold difference in affinity in comparison to original

C5A (XPA23) light chain variable region L96T (antibody, V domains shown) VH: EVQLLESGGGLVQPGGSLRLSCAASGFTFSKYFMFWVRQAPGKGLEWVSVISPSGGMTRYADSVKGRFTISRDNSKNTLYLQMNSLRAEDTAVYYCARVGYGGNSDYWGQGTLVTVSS VL: DIQMTQSPSSVSASVGDRLTIICRASQDINRWLAWYQQTPGNAPKLLIHSATSLQSGVPSRFSGSGSGTDFTLTINSLQPEDFATYYCQQADSFPTTFGGGTKVEIK    0.06 fold

Task: Tell me its fold difference in affinity in comparison to original given C5A (XPA23) light chain variable region S93V (antibody, V domains shown) VH: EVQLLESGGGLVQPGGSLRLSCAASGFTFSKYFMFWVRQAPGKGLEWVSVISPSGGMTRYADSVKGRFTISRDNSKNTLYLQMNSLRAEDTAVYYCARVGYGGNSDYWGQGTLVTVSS VL: DIQMTQSPSSVSASVGDRLTIICRASQDINRWLAWYQQTPGNAPKLLIHSATSLQSGVPSRFSGSGSGTDFTLTINSLQPEDFATYYCQQADVFPLTFGGGTKVEIK as the entry.
Result: 3.81 fold
